# Tested on: LOX IMVI melanoma
# test_description: NCI tumour cell line growth inhibition, 48 h; in the data active = GI50 below about 0.43 µM; inactive = the rest
Please state which outcome applies, choosing from active, inactive

These solved cases illustrate the format of a correct answer.
Task: Name the outcome recorded for "CCOc1cc(C(C)(C)C)ccc1C1=N[C@H](c2ccc(Cl)cc2)[C@H](c2ccc(Cl)cc2)N1C(=O)N1CCN(CC#Cc2cccc3c2CN([C@@H]2CCC(=O)NC2=O)C3=O)CC1" in the assay.
Result: inactive

Task: Name the outcome recorded for "COc1cc(Nc2ncccc2C(=O)Nc2nc3ccc(F)cc3s2)cc(OC)c1OC" in the assay.
Result: inactive

Task: Name the outcome recorded for "N[C@H](C(=O)O)[C@@H]1CC(Cl)=NO1" in the assay.
Result: inactive

Task: Name the outcome recorded for "C[C@]12CCc3sc(Nc4ccc(OC(F)(F)F)cc4)nc3C1=CC[C@@H]1[C@@H]2CC[C@]2(C)C(=O)CC[C@@H]12" in the assay.
Result: inactive

More entries:
Task: Name the outcome recorded for "CC(C)CNc1nc(-c2ccccc2Cl)nc2ccccc12" in the assay.
Result: inactive

Task: Name the outcome recorded for "COc1ccc2c(c1)C(=O)CCc1cc(OC)c(OC)c(OC)c1-2" in the assay.
Result: active

Task: Name the outcome recorded for "O=C(O)c1ccc(CN2CCC(CN[C@@H]3C[C@H]3c3ccccc3)CC2)cc1" in the assay.
Result: inactive

Task: Name the outcome recorded for C#CC1(O)C(COP(=O)(O)OCC(COP(=O)(O)OCC2OC(n3cc(F)c(=O)[nH]c3=O)CC2O)OCCCCCCCCCCCCCCCCCC)OC(n2ccc(N)nc2=O)C1O (stereo not drawn) in the assay.
Result: active

* * *

Listed below: TGI values for each entry.
# Test system: NCI-H23 lung
# test_description: NCI tumour cell line growth inhibition, 48 h

Task: Recorded TGI for "CCOC(=O)/C=C(\C(=O)OCC)n1cc(C)c(=O)n(Cc2cn(CCCCOC(C)=O)nn2)c1=O" , please?
Result: 27.8 µM

Task: Recorded TGI for "S=C(N/N=C/c1ccccn1)N1CCCCC1" , please?
Result: > 45.7 µM

Task: Recorded TGI for "C#CCn1c(=O)c(I)cn(/C(=C/C(=O)OCC)C(=O)OCC)c1=O" , please?
Result: 45.5 µM

Task: Recorded TGI for COc1ccc2c(c1)CN1C(=N2)CSC1c1cccc(Br)c1 (stereo not drawn) , please?
Result: 83.5 µM

Task: Recorded TGI for CC1=C2C(O)C(C(C)C(=O)N(C)C)CCC2(C)C=CC1=O (stereo not drawn) , please?
Result: > 100 µM

Task: Recorded TGI for "COc1ccc(C=O)cc1O[Si](C)(C)C(C)(C)C" , please?
Result: > 100 µM

Task: Recorded TGI for "Cc1cn(-c2cc(NC(=O)c3cccc(C#Cc4cccc5[nH]nc(N)c45)c3)cc(C(F)(F)F)c2)cn1" , please?
Result: > 100 µM

Task: Recorded TGI for CC(=O)SCCC(NC(=S)Nc1ccccc1)P(=O)(Oc1ccccc1)Oc1ccccc1 (stereo not drawn) , please?
Result: > 100 µM

Task: Recorded TGI for CCC1C[N+]23CCc4c([nH]c5ccccc45)C2CC1CC3 (stereo not drawn) , please?
Result: > 100 µM

Task: Recorded TGI for "Oc1ccc2ccccc2c1N=Nc1cccc2ccccc12" , please?
Result: > 100 µM

More entries:
Task: Recorded TGI for "O=S(=O)(O)c1ccc(N=Nc2ccc3c(S(=O)(=O)O)cccc3c2O)c2ccccc12" , please?
Result: > 100 µM

Task: Recorded TGI for CC(C)(C)C1CCC(=O)/C(=C/CC2CC(=O)N(c3ccccc3)C(=O)C2)C1 (stereo not drawn) , please?
Result: 34.6 µM

Task: Recorded TGI for O=C(Nc1ccc(Cl)cc1)C1C(=O)C(=O)N(c2ccc(Cl)cc2)C1=O (stereo not drawn) , please?
Result: > 100 µM

Task: Recorded TGI for "COc1ccc(NC(=O)CC/C(CC(=O)c2ccco2)=N/NC(=O)C(N)=O)cc1" , please?
Result: > 100 µM

Task: Recorded TGI for CCCC(C)c1ccc(OCCCCCCN2CCNCC2)cc1 (stereo not drawn) , please?
Result: 5.62 µM

Task: Recorded TGI for O=C1C=C(C2OC(CO)C(O)C2O)C(=O)N1 (stereo not drawn) , please?
Result: > 100 µM

Task: Recorded TGI for CS(=O)(=O)C(C#N)c1nc2ccccc2nc1Cl (stereo not drawn) , please?
Result: > 100 µM

Task: Recorded TGI for "CC(=O)Oc1c(C)c(-c2ccccc2)c(C)c(-c2ccccc2)c1C(=S)c1ccccc1" , please?
Result: > 100 µM

Task: Recorded TGI for "O=C(O)CSCCc1ccccc1" , please?
Result: > 100 µM

Task: Recorded TGI for "Cn1c(Cl)c(/C=C2/C(=O)Nc3ccccc32)c2ccccc21" , please?
Result: 8.89 µM

Task: Recorded TGI for Nc1ncnc2c1ncn2C1C=C(CO)C(O)C1O (stereo not drawn) , please?
Result: 35.4 µM

Task: Recorded TGI for "CSC(SC)(C(=O)O)c1cc(-c2c(Cl)cccc2Cl)no1" , please?
Result: 79 µM

Task: Recorded TGI for "O=C1C=C(Nc2ccccc2C(=O)CC(=O)C(=O)Nc2cccc([N+](=O)[O-])c2)c2ccccc2C1=O" , please?
Result: > 100 µM

Task: Recorded TGI for "C=C(C)[C@@H]1CC[C@]2(COCCCN)CC[C@]3(C)[C@H](CC[C@@H]4[C@@](C)(CCCNCCCN)[C@H](C(=C)C)CC[C@]43C)[C@@H]12" , please?
Result: 3.63 µM

Task: Recorded TGI for CC1(O)C(C)(O)C2(C)O[Te]3(OC12C)OC1(C)C(C)(O)C(C)(O)C1(C)O3 (stereo not drawn) , please?
Result: 29.7 µM

* * *

# System: SF-268 CNS
# test_description: NCI tumour cell line growth inhibition, 48 h; in the data active = GI50 below about 0.43 µM; inactive = the rest
Please state which outcome applies, choosing from true (1) = active, false (0) = inactive

These solved cases illustrate the format of a correct answer.
Task: Name the outcome recorded for "CN(c1ccc(NC(=O)Nc2c(Cl)cccc2Cl)cc1)c1ccnc(Nc2cccc(CS(C)(=O)=O)c2)n1" in the assay.
Result: false (0)

Task: Name the outcome recorded for CCCC(C)c1ccc(OCCCCCCN2CCNCC2)cc1 (stereo unspecified) in the assay.
Result: false (0)

Task: Name the outcome recorded for CC(=O)OC1OC([C@H]2c3cccc(O)c3C(=O)c3c(O)cc(C)cc32)C(O)C(O)C1O (stereo partly specified) in the assay.
Result: true (1)

More entries:
Task: Name the outcome recorded for "COC(=O)c1ccc2[nH]c(O)c(C(=Nc3ccc(N(C)C(=O)CN4CCN(C)CC4)cc3)c3ccc4c(c3)OCO4)c2c1" in the assay.
Result: false (0)

Task: Name the outcome recorded for "Cc1cn(-c2cc(NC(=O)c3cccc(C#Cc4cccc5[nH]nc(N)c45)c3)cc(C(F)(F)F)c2)cn1" in the assay.
Result: false (0)

Task: Name the outcome recorded for "CCOc1cccc(/C=N/NC(=O)c2cccc(Nc3ccnc(C(F)(F)F)c3)c2)c1O" in the assay.
Result: false (0)

* * *

Listed below: TGI values for each entry.
# Test system: SNB-78 CNS
# test_description: NCI tumour cell line growth inhibition, 48 h

Record excerpt, results attached:
Task: Recorded TGI for CC1(O)C(C)(O)C2(C)O[Te]3(OC12C)OC1(C)C(C)(O)C(C)(O)C1(C)O3 (stereo not drawn) , please?
Result: > 100 µM

Task: Recorded TGI for "CCCCCCCCCCCC(=O)OCCOCCOCCOCCOCCOC(=O)CCCCCCCCCCC" , please?
Result: > 100 µM

More entries:
Task: Recorded TGI for NC(CCCC(N)P(=O)(O)O)P(=O)(O)O (stereo not drawn) , please?
Result: > 100 µM

* * *

# Tested on: UO-31 renal
# test_description: NCI tumour cell line growth inhibition, 48 h
readout_label: TGI

Task: TGI of N#CSCC(Cl)=CCl (mixture of isomers) on UO-31 renal?
Result: > 100 µM

Task: TGI of "COc1cccc2c1C(=N)c1c(O)c3c(c(O)c1C2=O)C[C@@](O)(C(C)=O)C[C@@H]3O[C@H]1C[C@H](N)[C@H](O)[C@H](C)O1" on UO-31 renal?
Result: 19.9 µM

Task: TGI of "CCC(CC)NC1=C(NC(C)=O)C(=O)c2ccccc2C1=O" on UO-31 renal?
Result: > 50 µM

More entries:
Task: TGI of "CN(c1ccc(NC(=O)Nc2c(Cl)cccc2Cl)cc1)c1ccnc(Nc2cccc(CS(C)(=O)=O)c2)n1" on UO-31 renal?
Result: 13.3 µM

Task: TGI of "Cc1ccc(C(=O)O)c(/C=C2\Cc3ccc(C)cc3C2=O)c1" on UO-31 renal?
Result: > 100 µM

Task: TGI of "COC(=O)C(=O)CC(=O)CCn1[nH]c(=O)c(Cl)c(Cl)c1=O" on UO-31 renal?
Result: > 100 µM

Task: TGI of C=C(CCOC)CCC1CCCCC(CN(C)C)C1=O (stereo not given) on UO-31 renal?
Result: > 100 µM

Task: TGI of "C[C@]12CC=CC(=O)[C@@]1(C)CCC(=O)C2" on UO-31 renal?
Result: > 100 µM

Task: TGI of "C=CC[P@]1(=O)O[C@H](c2ccccc2)[C@H](C)N1C" on UO-31 renal?
Result: > 100 µM

Task: TGI of "CCOc1cccc(/C=N/NC(=O)c2cccc(Nc3ccnc(C(F)(F)F)c3)c2)c1O" on UO-31 renal?
Result: 26.2 µM
